Hey, just so you know, these numbers are from ChEMBL document CHEMBL5728507.

Assay read-out IC50; system under study: Macrophage colony-stimulating factor 1 receptor (Homo sapiens).
Sequence (P07333 whole entry): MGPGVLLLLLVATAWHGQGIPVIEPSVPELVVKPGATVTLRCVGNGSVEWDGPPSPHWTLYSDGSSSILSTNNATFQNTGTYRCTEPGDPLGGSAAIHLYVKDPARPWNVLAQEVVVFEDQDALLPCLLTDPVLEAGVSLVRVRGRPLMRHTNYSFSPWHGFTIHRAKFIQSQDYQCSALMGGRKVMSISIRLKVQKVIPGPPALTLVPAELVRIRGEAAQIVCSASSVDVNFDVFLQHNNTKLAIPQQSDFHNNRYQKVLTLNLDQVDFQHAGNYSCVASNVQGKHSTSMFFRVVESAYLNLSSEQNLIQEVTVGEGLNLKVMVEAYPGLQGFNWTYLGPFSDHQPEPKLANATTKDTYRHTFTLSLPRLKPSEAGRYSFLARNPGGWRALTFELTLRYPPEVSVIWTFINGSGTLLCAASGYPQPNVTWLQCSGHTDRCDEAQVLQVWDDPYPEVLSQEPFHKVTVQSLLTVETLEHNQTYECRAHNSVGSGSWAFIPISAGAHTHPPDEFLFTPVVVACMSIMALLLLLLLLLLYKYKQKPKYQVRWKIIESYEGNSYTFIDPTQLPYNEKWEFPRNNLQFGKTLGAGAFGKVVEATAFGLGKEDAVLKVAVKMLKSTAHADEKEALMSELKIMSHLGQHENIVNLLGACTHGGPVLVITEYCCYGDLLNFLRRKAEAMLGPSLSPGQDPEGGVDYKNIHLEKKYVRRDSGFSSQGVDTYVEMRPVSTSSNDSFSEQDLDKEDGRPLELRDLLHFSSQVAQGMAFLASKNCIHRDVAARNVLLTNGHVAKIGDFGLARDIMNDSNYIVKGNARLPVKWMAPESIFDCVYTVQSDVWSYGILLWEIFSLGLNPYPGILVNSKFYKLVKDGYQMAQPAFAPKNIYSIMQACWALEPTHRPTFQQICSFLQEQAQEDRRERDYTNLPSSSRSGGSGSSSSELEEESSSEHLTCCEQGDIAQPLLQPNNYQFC

- Cc1cc(OCCCN2C[C@@H](C)N[C@@H](C)C2)c2oc3cc(Oc4ccc(CCC(=O)NC5CCCC5)nc4)ccc3c(=O)c2c1: < 100 nM

Macrophage colony-stimulating factor 1 receptor (Homo sapiens) data for Cc1cc(OCCCN(C)C)c2oc3cc(Oc4cccc(C(=O)Nc5ccccc5)c4)ccc3c(=O)c2c1 ; its IC50: < 100 nM

Macrophage colony-stimulating factor 1 receptor (Homo sapiens) data for Cc1cc(OCCN(C)C)c2oc3cc(Oc4cccc(NC(=O)Nc5ccccc5)c4)ccc3c(=O)c2c1 ; its IC50: < 100 nM
